Here, each record is paired with measured pIC50 data.
Target: IL-23R (Homo sapiens, UniProt Q5VWK5)
Sequence (Q5VWK5 24-629): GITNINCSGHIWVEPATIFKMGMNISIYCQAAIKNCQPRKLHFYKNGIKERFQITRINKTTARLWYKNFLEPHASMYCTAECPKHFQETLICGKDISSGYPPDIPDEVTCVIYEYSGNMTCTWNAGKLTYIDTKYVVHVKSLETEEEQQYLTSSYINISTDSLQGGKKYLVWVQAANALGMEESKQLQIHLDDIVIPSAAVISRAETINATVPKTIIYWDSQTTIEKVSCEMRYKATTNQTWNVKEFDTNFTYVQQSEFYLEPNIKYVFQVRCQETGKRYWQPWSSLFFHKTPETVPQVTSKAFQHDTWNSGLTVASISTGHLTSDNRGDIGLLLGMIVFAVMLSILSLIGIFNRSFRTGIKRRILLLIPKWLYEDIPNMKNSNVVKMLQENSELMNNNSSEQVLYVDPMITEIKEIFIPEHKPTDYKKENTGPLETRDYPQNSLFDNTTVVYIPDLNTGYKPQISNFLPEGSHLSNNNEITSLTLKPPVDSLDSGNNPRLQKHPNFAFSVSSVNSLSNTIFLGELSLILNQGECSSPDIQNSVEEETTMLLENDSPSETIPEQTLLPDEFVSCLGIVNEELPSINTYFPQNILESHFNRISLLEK
Assay: DB cells IL23R pSTAT3 cell assay (pStat3 HTRF)
Assay type: cell-based
Conditions: Table E3; DB cells, IL-23 0.5 nM, 30 minutes at 37° C.; read-out: pStat3 HTRF (IC50)
pIC50: −log10 of the molar value.
MEASUREMENT_NAME: pIC50

ITEM_SMILES: CC(=O)NCCCC[C@H](NC(=O)[C@](C)(CC(C)C)NC(=O)[C@H](Cc1ccc2ccccc2c1)NC(=O)[C@H](Cc1ccc(OCCN)cc1)NC(=O)[C@H]1NC(=O)[C@H](CCC(N)=O)NC(=O)[C@H](Cc2c[nH]c3c(C)cccc23)NC(=O)[C@H]([C@@H](C)O)NC(=O)[C@H](CC(N)=O)NC(=O)[C@@H](NC(C)=O)C(C)(C)SSC1(C)C)C(=O)NCC(=O)NCCC(N)=O
READOUT_VALUE: 8.00 to 9.00
--
ITEM_SMILES: CC(=O)NCCCC[C@H](NC(=O)C1(NC(=O)[C@H](Cc2ccc3ccccc3c2)NC(=O)[C@H](Cc2ccc(OCCN)cc2)NC(=O)[C@H]2NC(=O)[C@H](CCC(N)=O)NC(=O)[C@H](Cc3c[nH]c4c(C)cccc34)NC(=O)[C@H]([C@@H](C)O)NC(=O)[C@H](CC(N)=O)NC(=O)[C@@H](NC(C)=O)C(C)(C)SSC2(C)C)CCCCC1)C(=O)N[C@@H](CC(N)=O)C(=O)NCCC(N)=O
READOUT_VALUE: > 9.00

###

This listing pairs compounds with measured half-life at 20 μM.
Experiment: in vitro
Details: human, 20% fecal homogenate (supernatant), anaerobic, pH 6.8
Numbered stars: 1 amine (or outer) side, 2 acyl side, 3 side chain; on linkers, the order of the positions; unused ones are H or OH. Bridge positions count the residues as written; N and C are the ends. Square brackets hold non-standard residues; d marks the D form. Peptide text beside a SMILES is read from it. X1 = CCc1cccc2c(C[C@H](N[*:1])C(=O)[*:2])c[nH]c12; Trp(7-Me) = Cc1cccc2c(C[C@H](N)C(=O)O)c[nH]c12; 2Nal = N[C@@H](Cc1ccc2ccccc2c1)C(=O)O; AEF = NCCOc1ccc(C[C@H](N)C(=O)O)cc1; Cit = NC(=O)NCCC[C@H](N)C(=O)O; Pen = CC(C)(S)[C@H](N)C(=O)O; αMeK = C[C@](N)(CCCCN)C(=O)O

COMPOUND: CC(=O)NCCCC[C@H](NC(=O)C1(NC(=O)[C@H](Cc2ccc3ccccc3c2)NC(=O)[C@H](Cc2ccc(OCCN)cc2)NC(=O)[C@H]2NC(=O)[C@H](CCC(N)=O)NC(=O)[C@H](Cc3c[nH]c4c(C)cccc34)NC(=O)[C@H]([C@@H](C)O)NC(=O)[C@H](CC(N)=O)NC(=O)[C@@H](NC(C)=O)C(C)(C)SSC2(C)C)CCCCC1)C(=O)N[C@@H](CC(N)=O)C(=O)NCCC(N)=O [compound 274]
half-life at 20 μM: > 24 h
--
COMPOUND: CC(=O)NCCCC[C@H](NC(=O)[C@](C)(CCCCN)NC(=O)[C@H](Cc1ccc2ccccc2c1)NC(=O)[C@H](Cc1ccc(OCCN)cc1)NC(=O)[C@H]1NC(=O)[C@H](CCCNC(N)=O)NC(=O)[C@H](Cc2c[nH]c3c(C)cccc23)NC(=O)[C@H]([C@@H](C)O)NC(=O)[C@H](CC(N)=O)NC(=O)[C@@H](NC(C)=O)C(C)(C)SSC1(C)C)C(=O)N[C@@H](CC(N)=O)C(=O)N[C@@H](C(N)=O)[C@H](C)O [compound 263] (Ac-[Pen]NT[Trp(7-Me)][Cit][Pen][AEF][2Nal][αMeK]K(Ac)N[dT]-NH2; disulfide 1-6)
half-life at 20 μM: > 24 h
--
COMPOUND: COc1cccc2[nH]cc(C[C@@H]3NC(=O)[C@H]([C@@H](C)O)NC(=O)[C@H](CC(N)=O)NC(=O)[C@@H](NC(C)=O)C(C)(C)SSC(C)(C)[C@@H](C(=O)N[C@@H](Cc4ccc(OCCN)cc4)C(=O)N[C@@H](Cc4ccc5ccccc5c4)C(=O)N[C@@](C)(CC(C)C)C(=O)N[C@@H](CCCCNC(C)=O)C(=O)N[C@@H](CC(N)=O)C(=O)N[C@@H](CC(N)=O)C(N)=O)NC(=O)[C@H](CCC(N)=O)NC3=O)c12 [compound 4]
half-life at 20 μM: 6 h
--
COMPOUND: CC(=O)NCCCC[C@@H]1NC(=O)[C@H](Cc2c[nH]c3c(C)cccc23)NC(=O)[C@H]([C@@H](C)O)NC(=O)[C@H](CC(N)=O)NC(=O)[C@@H](NC(C)=O)C(C)(C)SSC(C)(C)[C@@H](C(=O)N[C@@H](Cc2ccc(OCCN)cc2)C(=O)N[C@@H](Cc2ccc3ccccc3c2)C(=O)N[C@@](C)(CCCCN)C(=O)N[C@@H](CCCCNC(C)=O)C(=O)N[C@@H](CC(N)=O)C(=O)N[C@@H](CC(C)C)C(N)=O)NC1=O [compound 244]
half-life at 20 μM: 19 h
--
COMPOUND: CC(=O)NCCCC[C@H](NC(=O)[C@](C)(CCCCN)NC(=O)[C@H](Cc1ccc2ccccc2c1)NC(=O)[C@H](Cc1ccc(OCCN)cc1)NC(=O)[C@H]1NC(=O)[C@H](CCC(N)=O)NC(=O)[C@H](Cc2c[nH]c3c(C)cccc23)NC(=O)[C@H]([C@@H](C)O)NC(=O)[C@H](CCC(N)=O)NC(=O)[C@@H](NC(C)=O)C(C)(C)SSC1(C)C)C(=O)N[C@@H](CC(N)=O)C(=O)NCCC(N)=O [compound 237]
half-life at 20 μM: > 24 h
--
COMPOUND: CCc1cccc2c(C[C@@H]3NC(=O)[C@H]([C@@H](C)O)NC(=O)[C@H](CC(N)=O)NC(=O)[C@@H](NC(C)=O)C(C)(C)SSC(C)(C)[C@@H](C(=O)N[C@@H](Cc4ccc(OCCN)cc4)C(=O)N[C@@H](Cc4ccc5ccccc5c4)C(=O)N[C@@](C)(CCCCN)C(=O)N[C@@H](CCCCNC(C)=O)C(=O)N[C@@H](CC(N)=O)C(=O)N[C@H](CC(C)C)C(N)=O)NC(=O)[C@H](CCCCNC(C)=O)NC3=O)c[nH]c12 [compound 284] (Ac-[Pen]NT[X1]K(Ac)[Pen][AEF][2Nal][αMeK]K(Ac)N[dL]-NH2; disulfide 1-6)
half-life at 20 μM: > 24 h
--
COMPOUND: CC(=O)NCCCC[C@@H]1NC(=O)[C@@H](NC(C)=O)C(C)(C)SSC(C)(C)[C@@H](C(=O)N[C@@H](Cc2ccc(OCCN)cc2)C(=O)N[C@@H](Cc2ccc3ccccc3c2)C(=O)N[C@@](C)(CCCCN)C(=O)N[C@@H](CCCCNC(C)=O)C(=O)N[C@@H](CC(N)=O)C(=O)NCCC(N)=O)NC(=O)[C@H](CCC(N)=O)NC(=O)[C@H](Cc2c[nH]c3c(C)cccc23)NC(=O)[C@H]([C@@H](C)O)NC1=O [compound 239]
half-life at 20 μM: > 24 h
--
COMPOUND: CC(=O)NCCCC[C@@H]1NC(=O)[C@H](Cc2c[nH]c3c(C)cccc23)NC(=O)[C@H]([C@@H](C)O)NC(=O)[C@H](CC(N)=O)NC(=O)[C@@H](NC(C)=O)C(C)(C)SSC(C)(C)[C@@H](C(=O)N[C@@H](Cc2ccc(OCCN)cc2)C(=O)N[C@@H](Cc2ccc3ccccc3c2)C(=O)N[C@@](C)(CCCCN)C(=O)N[C@@H](CCCCNC(C)=O)C(=O)N[C@@H](CC(N)=O)C(=O)N2CCC[C@H]2C(N)=O)NC1=O [compound 253]
half-life at 20 μM: 1 h
--
COMPOUND: CC(=O)NCCCC[C@H](NC(=O)[C@](C)(CC(C)C)NC(=O)[C@H](Cc1ccc2ccccc2c1)NC(=O)[C@H](Cc1ccc(OCCN)cc1)NC(=O)[C@H]1NC(=O)[C@H](CCC(N)=O)NC(=O)[C@H](Cc2c[nH]c3c(C)cccc23)NC(=O)[C@H]([C@@H](C)O)NC(=O)[C@H](CC(N)=O)NC(=O)[C@@H](NC(C)=O)C(C)(C)SSC1(C)C)C(=O)N[C@H](CO)C(=O)NCCC(N)=O [compound 222]
half-life at 20 μM: > 24 h
